- tested-target: T1, recombinant human DLL3 (human, UniProt Q9NYJ7 27-492)
- T1 sequence: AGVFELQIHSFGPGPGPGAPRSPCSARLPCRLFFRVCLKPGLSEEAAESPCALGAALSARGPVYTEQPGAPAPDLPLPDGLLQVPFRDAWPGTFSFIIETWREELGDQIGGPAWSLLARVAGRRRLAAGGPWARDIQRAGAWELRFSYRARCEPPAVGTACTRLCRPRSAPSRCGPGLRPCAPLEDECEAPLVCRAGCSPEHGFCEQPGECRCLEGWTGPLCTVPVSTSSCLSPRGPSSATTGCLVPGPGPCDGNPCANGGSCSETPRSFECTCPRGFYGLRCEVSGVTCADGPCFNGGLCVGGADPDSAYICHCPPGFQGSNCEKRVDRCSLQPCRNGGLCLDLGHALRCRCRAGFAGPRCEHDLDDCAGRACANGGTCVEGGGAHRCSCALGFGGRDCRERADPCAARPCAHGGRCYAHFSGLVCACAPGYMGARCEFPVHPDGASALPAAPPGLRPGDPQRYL
- test-description: Octet binning on SA sensor; Antibody A (biotinylated, loaded first): DL301-SG1; then 20 nM human DLL3, then 80 nM Antibody B
measurement-label: competition ratio (Antibody B to Antibody A)

INSERT INTO measurements (binder, numeric_result) VALUES
  ('DL309-SG1 (antibody, human IgG1, kappa, V domains shown, Variable regions of a previously reported anti-DLL3 antibody on SG1/SK1; Also used biotin-labelled as a first antibody) VH: QVQLQQSGGDLMKPGASVKISCKAAGYTFSNYYIEWVKQRPGHGLEWIGEILPGSGSTTYNEKFKGKASFTADTSSNTAYMQLSSLTSEDSAVYYCARWGAREPGFPYWGQGTLVTVSA VL: DIVMTQSQKFMSTSVGDRVSVTCKASQNVGTNVAWYQQKPGQSPKALIYSASYRYSGVPDRFTGSGSGTDFTLTISNVQSEDLAEYFCQQYNNYPLTFGAGTKLELKR', 1.4),
  ('DL301-SG1 (antibody, human IgG1, kappa, V domains shown, Variable regions of a previously reported anti-DLL3 antibody on SG1/SK1; Also used biotin-labelled as a first antibody) VH: QVQLQQSGADLVRPGTSVKVSCKASGYAFTNYLIEWIKQRPGQGLEWIGVMNPGSGGTHYSEKFRGKATLTADKSSSTAYMQLISLTSDDSAVYFCARSDYDYVTYAMDYWGQGTSVTVSS VL: DIKMTQSPSSMYASLGERVTITCKASQDINSYLIWFQQKPGKSPKTLIYRTNRLVDGVPSRFSGSGSGQDYSLTISSLEYGDMGIYYCLQYDEFPFTFGSGTKLEIKR', -0.1),
  ('DL312-SG1 (antibody, human IgG1, kappa, V domains shown, Variable regions of a previously reported anti-DLL3 antibody on SG1/SK1; Also used biotin-labelled as a first antibody) VH: EVKLVESGGGLVQPGGSLSLSCAASGFTFTDYYMNWVRQPPGKALEWLALIRNKANGYTTEYNASVKGRFTISRDNSQNILYLQMNALRAEDSATYYCARDSDGYYEYYFDYWGQGTTLTVSS VL: DIQMTQSPSSLSASLGERVSLTCRASQEISDYLSWLQQKPDGTIKRLIFAASTLDSGVPKRFSGSRSGSDFSLSISSLESEDFADYYCLQYASYPYTFGSGTKLEIKR', 1);
